- assayTarget: Quadruplex DNA
- measurementProtocol: Binding affinity to Cy5-labeled c-Kit2 G4-quadruplex DNA (Cy5-CGGGCGGGCGCTAGGGAGGGT-3') (unknown origin) assessed as equilibrium dissociation constant measured at 25 degC by microscale thermophoresis analysis
- Type: nucleic-acid assay
assayEndpoint: Kd (nM)
Could you give me the number in nM? Just the number is fine.

Look at this molecule and give its reported Kd. CN(C)CCCNC(=O)c1ccc2[nH]c(=O)c3cc(=O)c(O)cn3c2c1
1100

---

- System: Quadruplex DNA
- measurementProtocol: Stabilization of human Hybrid Tel23 G4-quadruplex DNA (5'-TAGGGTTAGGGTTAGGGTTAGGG-3') assessed as change in melting temperature at 5 equiv. by CD melting based analysis
- Assay type: nucleic-acid assay
Measured ΔTm values are reported for all entries that follow.
Could you give me the number in °C? Just the number is fine.

Some compounds with known ΔTm results, for comparison:
>  <chemSmiles>
O=C(NCCN1CCOCC1)c1ccc2[nH]c(=O)c3cc(=O)c(O)cn3c2c1

>  <ΔTm [°C]>
2.3

$$$$
>  <chemSmiles>
O=C(NCc1ccccc1)c1ccc2[nH]c(=O)c3cc(=O)c(OCc4ccccc4)cn3c2c1

>  <ΔTm [°C]>
1.2

$$$$
>  <chemSmiles>
CN(C)CCCNC(=O)c1ccc2[nH]c(=O)c3cc(=O)c(OCc4ccccc4)cn3c2c1

>  <ΔTm [°C]>
5.1

$$$$

Short answer please: ΔTm, Quadruplex DNA, entry N=C(N)NCCCNC(=O)c1ccc2[nH]c(=O)c3cc(=O)c(O)cn3c2c1
2.8

Short answer please: ΔTm, Quadruplex DNA, entry O=C(O)c1ccc2[nH]c(=O)c3cc(=O)c(OCc4ccccc4)cn3c2c1
1
